- System: M. smegmatis MC^2 155 strain
- experiment summary: Antitubercular activity: growth inhibition of M. smegmatis in 96 well microtiter plate (absorbance at 600 nm)
- Type: cell-based, Mycobacterium smegmatis
- stated conditions: Mycolicibacterium smegmatis, MC^2155, final concentration of compound 30 μM, 32 hrs, determined against DMSO, triplicate, read-out: Percentage inhibition
The following compounds are shown together with reported inhibition at 30 µM values.
Numeric only. Scale: %

Some solved entries appear below for comparison.
CN1C(=O)C(OC(=O)/C=C/c2ccccc2)(C(=O)NC(C)(C)C)c2ccccc21 (stereo not shown)    7.04
CN1C(=O)C(OC(=O)c2ccccc2)(C(=O)NC(C)(C)C)c2cc(Cl)ccc21 (stereo not shown) [Compound 4v]    9.49
CCC(=O)OC1(C(=O)NC(C)(C)C)C(=O)N(C)c2ccccc21 (stereo not shown) [Compound 4o]    -1.64
CN1C(=O)C(OC(=O)c2cccc([N+](=O)[O-])c2)(C(=O)NC(C)(C)C)c2ccccc21 (stereo not shown) [Compound 4e]    -5.24
CN1C(=O)C(OC(=O)c2ccccc2F)(C(=O)NC(C)(C)C)c2ccccc21 (stereo not shown) [Compound 4b]    24.6

Name the reported inhibition at 30 µM value associated with the compound C=CCN1C(=O)C(OC(=O)c2ccccc2)(C(=O)NC(C)(C)C)c2ccccc21 (stereo not shown) [Compound 4r]
35.4

Given the entry CN1C(=O)C(OC(=O)c2ccccn2)(C(=O)NC(C)(C)C)c2ccccc21 (stereo not shown) , report its measured inhibition at 30 µM.
5.24

###

Attribute: inhibition at 30 µM
- System: M. smegmatis MC^2 155 strain
- experiment summary: Antitubercular activity: growth inhibition of M. smegmatis in 96 well microtiter plate (absorbance at 600 nm)
- Assay type: cell-based, Mycobacterium smegmatis
- stated conditions: Mycolicibacterium smegmatis, MC^2155, final concentration of compound 30 μM, 32 hrs, determined against DMSO, triplicate, read-out: Percentage inhibition
The figure you give is taken to be in %; do not add the unit.

Observe how each entry below is paired with its result.
CN1C(=O)C(OC(=O)c2ccco2)(C(=O)NC(C)(C)C)c2ccccc21 (stereo not drawn)    24.1
CN1C(=O)C(OC(=O)c2ccccc2)(C(=O)NC(C)(C)C)c2ccccc21 (stereo not drawn)    18.6
CN1C(=O)C(OC(=O)c2cccs2)(C(=O)NC(C)(C)C)c2ccccc21 (stereo not drawn)    30.8

Recorded inhibition at 30 µM for CC(=O)OC1(C(=O)NC(C)(C)C)C(=O)N(C)c2ccccc21 (stereo not drawn) , please?
19.6

Tell me the measured inhibition at 30 µM of CC(C)(C)NC(=O)C1(OC(=O)c2ccccc2)C(=O)N(Cc2ccccc2)c2ccccc21 (stereo not drawn) , please.
42.9

Requested field: inhibition at 30 µM. Item: CN1C(=O)C(OC(=O)c2cc3ccccc3o2)(C(=O)NC(C)(C)C)c2ccccc21 (stereo not drawn)
26.4

Which inhibition at 30 µM value is on record for CCOC(=O)CNC(=O)C1(OC(=O)c2ccccc2)C(=O)N(C)c2ccccc21 (stereo not drawn) ?
14.7

Using the record for CN1C(=O)C(OC(=O)c2ccccc2Cl)(C(=O)NC(C)(C)C)c2ccccc21 (stereo not drawn) , report its inhibition at 30 µM.
42.7

Item under review: CN1C(=O)C(OC(=O)c2cc3ccccc3[nH]2)(C(=O)NC(C)(C)C)c2ccccc21 (stereo not drawn) . Reported inhibition at 30 µM?
9

What value of inhibition at 30 µM has been recorded for this entry: COc1ccc(C(=O)OC2(C(=O)NC(C)(C)C)C(=O)N(C)c3ccccc32)cc1 (stereo not drawn)
43.5

Dear colleague, I am looking for the recorded inhibition at 30 µM of the following compound: CN1C(=O)C(OC(=O)c2ccccc2)(C(=O)NC2CCCCC2)c2ccccc21 (stereo not drawn)
-8.02

Form field: reported inhibition at 30 µM of CN1C(=O)C(OC(=O)c2ccc([N+](=O)[O-])cc2)(C(=O)NC(C)(C)C)c2ccccc21 (stereo not drawn)
21.5

What value of inhibition at 30 µM has been recorded for this entry: CN1C(=O)C(OC(=O)c2ccccc2)(C(=O)NC(C)(C)C)c2cc(F)ccc21 (stereo not drawn)
5.24

Item under review: CC(C)NC(=O)C1(OC(=O)c2ccccc2)C(=O)N(C)c2ccccc21 (stereo not drawn) . Reported inhibition at 30 µM?
-5.24

For the compound shown here, CN1C(=O)C(OC(=O)c2ccccc2)(C(=O)NC(C)(C)C)c2cc(Br)ccc21 (stereo not drawn) , give the reported inhibition at 30 µM.
23.4

Which inhibition at 30 µM is listed for CN1C(=O)C(OC(=O)c2ccccc2Br)(C(=O)NC(C)(C)C)c2ccccc21 (stereo not drawn) ?
17.3

# inhibition at 30 µM lookup, item COc1ccc(CC(=O)OC2(C(=O)NC(C)(C)C)C(=O)N(C)c3ccccc32)cc1 (stereo not drawn)
44.2

Record request: inhibition at 30 µM value, item CC(C)(C)NC(=O)C1(OC(=O)c2ccccc2)C(=O)Nc2ccccc21 (stereo not drawn)
19.1

The origin of these recorded values is patent US9783496B2.
